Here, each record is paired with measured HDAC6 selectivity (fold) data.
Molecular target: human recombinant HDAC6 (Homo sapiens)
Construct: purchased Calbiochem 382180
Assay: HDAC6 enzyme activity inhibition assay (HDAC Fluorimetric Drug Discovery Kit)
Type: biochemical
Conditions: HDAC6 over HDAC1
// units = fold; emit number, no label

For orientation, consider the following solved cases.
{"smiles_repr": "CN1CCN(C(=O)N(Cc2ccc(-c3nnc(C(F)F)o3)cc2F)c2cccc(-c3cccnc3)c2)CC1", "display_unit": "fold", "HDAC6 selectivity (fold)": 556}
{"smiles_repr": "Cc1ccccc1N(Cc1ccc(-c2nnc(C(F)(F)F)o2)cc1)C(=O)N1CCS(=O)(=O)CC1", "display_unit": "fold", "HDAC6 selectivity (fold)": 30}
{"smiles_repr": "CCCN(C)C(=O)N(Cc1ccc(-c2nnc(C(F)(F)F)o2)cc1)c1ccccc1", "display_unit": "fold", "HDAC6 selectivity (fold)": 45}
{"smiles_repr": "CCc1ccc(N(Cc2ccc(-c3nnc(C(F)F)o3)cc2F)C(=O)N2CCS(=O)(=O)CC2)cc1", "display_unit": "fold", "HDAC6 selectivity (fold)": 108}
{"smiles_repr": "O=C(N1CCCC1)N(Cc1ccc(-c2nnc(C(F)(F)F)o2)cc1)c1ccccc1", "display_unit": "fold", "HDAC6 selectivity (fold)": 19}
{"smiles_repr": "CCN1CCN(C(=O)N(Cc2ccc(-c3nnc(C(F)F)o3)cc2F)c2ccc3cnn(C)c3c2)CC1", "display_unit": "fold", "HDAC6 selectivity (fold)": 662}

# query: HDAC6 selectivity (fold) of entry Cc1ccccc1N(Cc1ccc(-c2nnc(C(F)(F)F)o2)cn1)C(=O)N1CCN(C)CC1
58

* * *

Biological target: human recombinant HDAC6 (Homo sapiens, UniProt Q9UBN7)
Construct: purchased Calbiochem 382180
Assay: HDAC6 enzyme activity inhibition assay (HDAC Fluorimetric Drug Discovery Kit)
Format: biochemical
Conditions: human recombinant HDAC6, same protocol as HDAC1; read-out: HDAC6
Recorded pIC50, one value per entry.
The quantity pIC50 is defined as the negative base-10 logarithm of the molar concentration.

Reference set, count: 3
{"smiles_repr": "CCc1ccc(N(Cc2ccc(-c3nnc(C(F)F)o3)cc2F)C(=O)N2CCS(=O)(=O)CC2)cc1", "reported_measurement": 7.03}
{"smiles_repr": "CN1CCC2(CC1)CN(C(=O)N(Cc1ccc(-c3nnc(C(F)F)o3)cc1F)c1ccccc1)C2", "reported_measurement": 7.85}
{"smiles_repr": "O=C(NCCN1CCC[C@H]1C(F)(F)F)N(Cc1ccc(-c2nnc(C(F)F)o2)cc1F)c1ccccc1", "reported_measurement": 6.52}

Turning now to a further record.
Report pIC50 for O=C(N1CCS(=O)(=O)CC1)N(Cc1ccc(-c2nnc(C(F)(F)F)o2)cc1)c1cccc(C(F)(F)F)c1 please.
6.44

* * *

Biological target: human recombinant HDAC6 (Homo sapiens, UniProt Q9UBN7)
Construct: purchased Calbiochem 382180
Test: HDAC6 enzyme activity inhibition assay (HDAC Fluorimetric Drug Discovery Kit)
Type: biochemical
Conditions: HDAC6 over HDAC1
Could you label it Fulfilled if measured HDAC6 selectivity (fold) is 80 fold or higher, and Not fulfilled otherwise?

{"compound": "O=C(N1CCOCC1)N(Cc1ccc(-c2nnc(C(F)(F)F)o2)cn1)c1cccc(F)c1 [Compound 21844]", "class": "Fulfilled"}
{"compound": "O=C(N1CCOCC1)N(Cc1ccc(-c2nnc(C(F)(F)F)o2)cc1Cl)c1ccccc1 [Compound 21429]", "class": "Not fulfilled"}
{"compound": "Cc1ccccc1N(Cc1ccc(-c2nnc(C(F)F)o2)cc1)C(=O)N1CCS(=O)(=O)CC1 [Compound 21452]", "class": "Fulfilled"}
{"compound": "O=C(N1CCOCC1)N(Cc1ccc(-c2nnc(C(F)(F)F)o2)cc1)c1ccc(F)cc1 [Compound 21426]", "class": "Not fulfilled"}
{"compound": "CCOC(=O)CN1[C@H](C)CN(C(=O)N(Cc2ccc(-c3nnc(C(F)(F)F)o3)cc2)c2ccccc2)C[C@@H]1C [Compound 21404]", "class": "Not fulfilled"}

Item COc1cccc(N(Cc2ccc(-c3nnc(C(F)F)o3)cn2)C(=O)N2CCN(C)CC2)c1 [Compound 21622] with HDAC6 selectivity (fold) of 80 fold or above?
Fulfilled

* * *

Biological target: human recombinant HDAC1 (Homo sapiens, UniProt Q13547)
Construct: purchased Enzo Life Science BML-SE456
Sequence (Q13547 whole entry): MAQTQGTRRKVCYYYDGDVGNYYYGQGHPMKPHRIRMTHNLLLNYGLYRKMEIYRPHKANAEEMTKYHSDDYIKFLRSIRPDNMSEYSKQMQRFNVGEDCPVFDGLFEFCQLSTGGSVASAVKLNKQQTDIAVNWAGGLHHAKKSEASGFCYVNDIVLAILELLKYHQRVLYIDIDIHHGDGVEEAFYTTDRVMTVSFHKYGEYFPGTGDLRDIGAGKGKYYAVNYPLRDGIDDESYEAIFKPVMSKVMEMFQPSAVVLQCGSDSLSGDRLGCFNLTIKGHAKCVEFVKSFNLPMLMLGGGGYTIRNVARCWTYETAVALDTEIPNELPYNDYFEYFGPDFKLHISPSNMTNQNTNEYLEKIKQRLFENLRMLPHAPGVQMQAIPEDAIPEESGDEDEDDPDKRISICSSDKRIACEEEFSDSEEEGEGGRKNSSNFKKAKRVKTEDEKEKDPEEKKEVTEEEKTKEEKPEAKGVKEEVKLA
Test: HDAC1 enzyme activity inhibition assay (HDAC Fluorimetric Drug Discovery Kit)
Type: biochemical
Details: human recombinant HDAC1, Fluor de Lys substrate 10 μM, 30° C. 60 minutes
property_label: pIC50
pIC50 here: minus log base 10 of the concentration, concentration in moles per litre.

The following compounds have reported results that may help.
{"compound": "CCN1CCN(C(=O)N(Cc2ccc(-c3nnc(C(F)(F)F)o3)cn2)c2ccc(Cl)cc2)CC1 [Compound 21864]", "target_or_system": "human recombinant HDAC1 (Homo sapiens, UniProt Q13547)", "pIC50": 4.54}
{"compound": "O=C(N1CCS(=O)(=O)CC1)N(Cc1ccc(-c2nnc(C(F)F)o2)cn1)c1cccc(F)c1 [Compound 21830]", "target_or_system": "human recombinant HDAC1 (Homo sapiens, UniProt Q13547)", "pIC50": 4.39}
{"compound": "CN1CCN(C(=O)N(Cc2ccc(-c3nnc(C(F)F)o3)cc2F)c2ccc3cnn(C)c3c2)CC1 [Compound 21654]", "target_or_system": "human recombinant HDAC1 (Homo sapiens, UniProt Q13547)", "pIC50": 4.73}
{"compound": "O=C(N1CCS(=O)(=O)CC1)N(Cc1ccc(-c2nnc(C(F)(F)F)o2)cc1F)c1ccc(-c2ccncc2)cc1 [Compound 21519]", "target_or_system": "human recombinant HDAC1 (Homo sapiens, UniProt Q13547)", "pIC50": 5.58}

Could you now look at the following compound, please?
Could you tell me which pIC50 is on file for O=C(N1CCS(=O)(=O)CC1)N(Cc1ccc(-c2nnc(C(F)(F)F)o2)cc1F)c1ccc(-c2cccnc2)cc1 [Compound 21517] ?
5.53

* * *

Target: human recombinant HDAC6 (Homo sapiens, UniProt Q9UBN7)
Construct: purchased Calbiochem 382180
Sequence (Q9UBN7 1-1215): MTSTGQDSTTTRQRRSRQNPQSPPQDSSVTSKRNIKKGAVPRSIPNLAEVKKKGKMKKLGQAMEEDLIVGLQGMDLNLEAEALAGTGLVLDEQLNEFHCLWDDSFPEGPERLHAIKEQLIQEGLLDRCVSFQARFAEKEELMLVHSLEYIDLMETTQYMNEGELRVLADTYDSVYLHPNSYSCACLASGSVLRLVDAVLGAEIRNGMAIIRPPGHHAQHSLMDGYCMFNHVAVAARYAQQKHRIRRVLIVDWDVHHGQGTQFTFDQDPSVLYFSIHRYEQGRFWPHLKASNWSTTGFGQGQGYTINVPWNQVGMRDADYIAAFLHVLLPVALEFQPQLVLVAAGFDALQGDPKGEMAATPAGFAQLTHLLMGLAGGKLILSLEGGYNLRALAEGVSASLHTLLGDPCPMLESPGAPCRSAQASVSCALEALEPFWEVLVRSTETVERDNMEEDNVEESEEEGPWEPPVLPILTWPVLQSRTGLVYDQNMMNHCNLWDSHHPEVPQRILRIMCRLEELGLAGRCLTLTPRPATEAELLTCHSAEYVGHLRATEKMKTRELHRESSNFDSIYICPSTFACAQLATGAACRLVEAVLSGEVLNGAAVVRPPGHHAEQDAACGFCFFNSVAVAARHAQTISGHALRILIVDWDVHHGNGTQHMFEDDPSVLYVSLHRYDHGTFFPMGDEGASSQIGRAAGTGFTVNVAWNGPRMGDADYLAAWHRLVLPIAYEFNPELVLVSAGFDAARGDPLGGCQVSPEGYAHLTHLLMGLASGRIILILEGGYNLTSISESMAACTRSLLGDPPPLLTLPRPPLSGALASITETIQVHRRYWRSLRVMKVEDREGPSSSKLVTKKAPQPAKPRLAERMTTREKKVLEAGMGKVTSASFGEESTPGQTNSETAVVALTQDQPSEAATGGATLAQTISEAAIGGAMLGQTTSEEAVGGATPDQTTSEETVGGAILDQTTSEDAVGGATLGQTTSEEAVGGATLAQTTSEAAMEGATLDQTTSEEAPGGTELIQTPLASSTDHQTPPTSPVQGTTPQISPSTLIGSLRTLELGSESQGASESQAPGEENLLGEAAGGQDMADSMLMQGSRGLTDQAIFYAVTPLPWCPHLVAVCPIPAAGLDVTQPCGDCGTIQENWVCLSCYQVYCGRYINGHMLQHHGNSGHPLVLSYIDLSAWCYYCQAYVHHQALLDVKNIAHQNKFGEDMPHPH
Test: HDAC6 enzyme activity inhibition assay (HDAC Fluorimetric Drug Discovery Kit)
Type: biochemical
Details: HDAC6 over HDAC1
property_label: HDAC6 selectivity (fold)
Write the numeric value and append its unit.

See these solved cases before continuing.
{"compound": "O=C(N1CCN(c2ccccc2)CC1)N(Cc1ccc(-c2nnc(C(F)(F)F)o2)cc1)c1ccccc1 [Compound 21358]", "property_label": "HDAC6 selectivity (fold)", "reported_measurement": "10 fold"}
{"compound": "O=C(N1CCS(=O)(=O)CC1)N(Cc1ccc(-c2nnc(C(F)F)o2)cn1)c1ccc(Oc2ccccc2)cc1 [Compound 21631]", "property_label": "HDAC6 selectivity (fold)", "reported_measurement": "138 fold"}
{"compound": "O=C(N1CCOCC1)N(Cc1ccc(-c2nnc(C(F)F)o2)cc1F)c1nncs1 [Compound 21981]", "property_label": "HDAC6 selectivity (fold)", "reported_measurement": "13 fold"}
{"compound": "O=C(N1CCS(=O)(=O)CC1)N(Cc1ccc(-c2nnc(C(F)F)o2)cn1)c1ccc(F)c(Cl)c1 [Compound 21587]", "property_label": "HDAC6 selectivity (fold)", "reported_measurement": "909 fold"}
{"compound": "CN1CCN(C(=O)N(Cc2ccc(-c3nnc(C(F)(F)F)o3)cc2)c2ccccc2)CC1 [Compound 21285]", "property_label": "HDAC6 selectivity (fold)", "reported_measurement": "91 fold"}

If you can, please state the reported HDAC6 selectivity (fold) value of CCN1CCN(C(=O)N(Cc2ccc(-c3nnc(C(F)(F)F)o3)cn2)c2cccc(OC)c2)CC1 [Compound 21873] .
55 fold

And for O=C(NCCN1CC(F)(F)C1)N(Cc1ccc(-c2nnc(C(F)F)o2)cc1F)c1ccccc1 [Compound 21983] ?
63 fold

Taken from patent US10717716B2.
